Tested on: SKM MF
Test: SKM MF AC1.4: ATPase screen of skeletal sarcomeric proteins with PK/LDH coupled enzyme system
Type: biochemical
Set-up: unit not given here
Settings: median
Procedure: For example, test compounds can be assayed in a highly parallel fashion by using multiwell plates by placing the compounds either individually in wells or testing them in mixtures. Assay components including the target protein complex, coupling enzymes and substrates, and ATP can then be added to the wells and the absorbance or fluorescence of each well of the plate can be measured with a plate reader. In some embodiments, the method uses a 384 well plate format and a 25 μL reaction volume. […]
PROPERTY_LABEL: AC1.4 Median

| COMPOUND | EXPERIMENTAL_TARGET | PROPERTY_LABEL | RECORDED_VALUE |
| --- | --- | --- | --- |
| Oc1nc2ncc(Cl)cc2n1CCCC(F)(F)F | SKM MF | AC1.4 Median | 8.0408 |
| CCC(CC)n1c(O)nc2ncc(Cl)cc21 | SKM MF | AC1.4 Median | 1.6866 |
| CCC(CC)n1c(=O)[nH]c2ncccc21 | SKM MF | AC1.4 Median | 19.1998 |
| C=CCn1c(O)nc2ncc(Cl)c(I)c21 | SKM MF | AC1.4 Median | 23.0211 |
| C=CCc1c(Cl)cnc2nc(O)n(C(CC)CC)c12 | SKM MF | AC1.4 Median | 3.6218 |
| CCC(CC)n1c(O)nc2ncc(Cl)c(I)c21 | SKM MF | AC1.4 Median | 1.1778 |
| CCC(CC)n1c(O)nc2ncc(Cl)c(/C=N\OC(C)(C)C)c21 | SKM MF | AC1.4 Median | 19.5317 |
| CC(C)(C)C(CO)n1c(O)nc2ncc(Cl)cc21 (stereo not drawn) | SKM MF | AC1.4 Median | 48.1977 |
| CC(C)C[C@H](CN1CCOCC1)n1c(O)nc2ncc(Cl)cc21 | SKM MF | AC1.4 Median | 5.0392 |
| C#Cc1cnc2nc(O)n(C(CC)CC)c2c1 | SKM MF | AC1.4 Median | 0.1667 |
| CC[C@H](CN1CCOCC1)n1c(O)nc2ncc(Cl)cc21 | SKM MF | AC1.4 Median | 15.2631 |
| CCC(CC)n1c(O)nc2ncc(Cl)c(/C=N/OCc3ccccc3)c21 | SKM MF | AC1.4 Median | 39.7159 |
